assay: Half life in Beagle dog hepatocytes at 3 uM assessed per million cells measured up to 60 mins by LC-MS/MS analysis; format: ADME, cell-based, Canis lupus familiaris, Hepatocyte
Recorded metric: half-life at 3 µM (h)

1) NCc1ccc2c(c1)nc(CN1C(=O)C3(CC3)c3ccc(F)cc31)n2CCCC(F)(F)F [SISUNATOVIR] ... 9.67

----------
experiment: Intrinsic clearance in human liver microsomes preincubated followed by NADPH addition and measured up to 45 mins by LC-MS/MS analysis; format: ADME, Microsome
Overview of recorded intrinsic clearance (CLint) for various molecules
Recorded metric: intrinsic clearance (CLint)

1) CC(C)CCn1c(CN2C(=O)C3(CC3)c3cc(F)ccc32)nc2cc(CN)ccc21 ... 344 µL/min
2) CC(C)CCn1c(CN2C(=O)C3(CC3)c3ccccc32)nc2cc(CN)ccc21 ... 592 µL/min
3) CC(C)CCn1c(CN2C(=O)C3(CCCC3)c3ccncc32)nc2cc(CN)ccc21 ... 488 µL/min
4) O=C1N(Cc2nc3cc(Cl)ccc3n2CCCC(F)(F)F)c2cc(F)ccc2C12CC2 ... 177 µL/min
5) NCc1ccc2c(c1)nc(CN1C(=O)C3(CC3)c3ccc(F)cc31)n2CCCC(F)(F)F [SISUNATOVIR] ... 44 µL/min
6) CC(C)CCn1c(CN2C(=O)C3(CC3)c3cccc(F)c32)nc2cc(CN)ccc21 ... 7 µL/min
7) NCc1ccc2c(c1)nc(CN1C(=O)C3(CC3)c3ccc(F)cc31)n2C1CCC(O)CC1 (centres undefined) ... 4.6 µL/min
8) CC(C)CCn1c(CN2C(=O)C3(CC3)c3ccc(F)cc32)nc2cc(CN)ccc21 ... 50.7 µL/min
9) NCc1ccc2c(c1)nc(CN1C(=O)C3(CC3)c3cccc(F)c31)n2CCCC(F)(F)F ... 2.9 µL/min
